- methodDescription: Solubility testing of (Z)-endoxifen in single solvents
- Assay type: physicochemical
- runConditions: t-butyl methyl ether, 25 °C, organic solvent or mixture, thermodynamic from solid, t-butyl methyl ether, room temperature; read-out: Solubility
- Method: To test the solubility of (Z)-endoxifen in varying conditions, 10 mg of (Z)-endoxifen was added to a stoppered tube, and 0.01 ml of the selected solvent was added (1000 mg/ml solution). The tube was shaken vigorously for 1 minute and then incubated at a constant temperature of 25.0° C. for 15 minutes. If the solid was not completed dissolved, the tube was shaken again and placed at the constant temperature of 25.0° C. for another 15 minutes. […]
observationType: solubility at 15 min

Recorded solubility at 15 min for CC/C(=C(\c1ccc(O)cc1)c1ccc(OCCNC)cc1)c1ccccc1 [(Z)-endoxifen] , please? < 10000 µg/mL

###

- methodDescription: Stability of (Z)-Endoxifen in acetone (HPLC peak table over time)
- Format: physicochemical
- runConditions: acetone, 40° C., 28 hr
observationType: HPLC peak RT 22.76, RRT 1.40
Show the value, then the unit it is measured in.

Recorded HPLC peak RT 22.76, RRT 1.40 for CC/C(=C(\c1ccc(O)cc1)c1ccc(OCCNC)cc1)c1ccccc1 [(Z)-endoxifen] , please? 0.02%

###

- methodDescription: Solubility testing of (Z)-endoxifen in single solvents
- Assay type: physicochemical
- runConditions: acetone, organic solvent or mixture, thermodynamic from solid, acetone, high temperature; read-out: Solubility
observationType: solubility

Recorded solubility for CC/C(=C(\c1ccc(O)cc1)c1ccc(OCCNC)cc1)c1ccccc1 [(Z)-endoxifen] , please? < 50 mg/mL

###

- methodDescription: Solubility testing of (Z)-endoxifen in single solvents
- Assay type: physicochemical
- runConditions: acetone, organic solvent or mixture, thermodynamic from solid, solvent acetone; 100 mg/mL; high temperature; read-out: Solubility HT (100 mg/mL): Sol. HT
observationType: solubility

Recorded solubility for CC/C(=C(\c1ccc(O)cc1)c1ccc(OCCNC)cc1)c1ccccc1 [(Z)-endoxifen] , please? < 100 mg/mL

###

- methodDescription: Solubility testing of (Z)-endoxifen in single solvents
- Assay type: physicochemical
- runConditions: toluene, 25 °C, organic solvent or mixture, thermodynamic from solid, toluene, room temperature; read-out: Solubility
observationType: solubility at 15 min (µg/mL)
Reply with just the number (in µg/mL).

Recorded solubility at 15 min for CC/C(=C(\c1ccc(O)cc1)c1ccc(OCCNC)cc1)c1ccccc1 [(Z)-endoxifen] , please? 10000

###

- methodDescription: Stability of (Z)-Endoxifen in acetone (HPLC peak table over time)
- Format: physicochemical
- runConditions: acetone, 40° C., 24 hr
observationType: HPLC peak RT 14.68, RRT 0.90 (%)
Reply with just the number (in %).

Recorded HPLC peak RT 14.68, RRT 0.90 for CC/C(=C(\c1ccc(O)cc1)c1ccc(OCCNC)cc1)c1ccccc1 [(Z)-endoxifen] , please? 0.04

###

- methodDescription: Solubility testing of (Z)-endoxifen in single solvents
- Type: physicochemical
- runConditions: water, 25 °C, water, thermodynamic from solid, water, room temperature; read-out: Solubility
observationType: solubility at 15 min

Recorded solubility at 15 min for CC/C(=C(\c1ccc(O)cc1)c1ccc(OCCNC)cc1)c1ccccc1 [(Z)-endoxifen] , please? < 10000 µg/mL

###

- methodDescription: Stability of (Z)-Endoxifen in acetone (HPLC peak table over time)
- Type: physicochemical
- runConditions: acetone, 40° C., 20 hr
observationType: HPLC peak RT 20.80, RRT 1.28 (%)
Reply with just the number (in %).

Recorded HPLC peak RT 20.80, RRT 1.28 for CC/C(=C(\c1ccc(O)cc1)c1ccc(OCCNC)cc1)c1ccccc1 [(Z)-endoxifen] , please? 0.21

###

- methodDescription: Stability of (Z)-Endoxifen in acetone (HPLC peak table over time)
- Format: physicochemical
- runConditions: acetone, 40° C., 24 hr
observationType: HPLC peak RT 22.68, RRT 1.39
Show the value, then the unit it is measured in.

Recorded HPLC peak RT 22.68, RRT 1.39 for CC/C(=C(\c1ccc(O)cc1)c1ccc(OCCNC)cc1)c1ccccc1 [(Z)-endoxifen] , please? 0.07%

###

- methodDescription: Stability of (Z)-Endoxifen in acetone (HPLC peak table over time)
- Type: physicochemical
- runConditions: acetone, 40° C., 24 hr
observationType: HPLC peak RT 20.80, RRT 1.28 (%)
Reply with just the number (in %).

Recorded HPLC peak RT 20.80, RRT 1.28 for CC/C(=C(\c1ccc(O)cc1)c1ccc(OCCNC)cc1)c1ccccc1 [(Z)-endoxifen] , please? 0.17

###

- methodDescription: Solubility testing of (Z)-endoxifen in single solvents
- Type: physicochemical
- runConditions: methanol, 25 °C, organic solvent or mixture, thermodynamic from solid, methanol; read-out: Solubility
observationType: solubility at 15 min

Recorded solubility at 15 min for CC/C(=C(\c1ccc(O)cc1)c1ccc(OCCNC)cc1)c1ccccc1 [(Z)-endoxifen] , please? 17 to 20 mg/mL

###

- methodDescription: Solvent mixture solubility tests of (Z)-endoxifen
- Assay type: physicochemical
- runConditions: heptane/toluene 50/50 v/v, organic solvent or mixture, thermodynamic from solid, heptane/toluene 50/50 v/v; 100 mg/mL; high temperature; read-out: Solubility HT (100 mg/mL): Sol. HT
observationType: solubility

Recorded solubility for CC/C(=C(\c1ccc(O)cc1)c1ccc(OCCNC)cc1)c1ccccc1 [(Z)-endoxifen] , please? < 100 mg/mL

###

- methodDescription: Stability of (Z)-Endoxifen in acetone (HPLC peak table over time)
- Format: physicochemical
- runConditions: acetone, 40° C., 4 hr
observationType: HPLC peak RT 21.56, RRT 1.33 (%)
Reply with just the number (in %).

Recorded HPLC peak RT 21.56, RRT 1.33 for CC/C(=C(\c1ccc(O)cc1)c1ccc(OCCNC)cc1)c1ccccc1 [(Z)-endoxifen] , please? 0.08

###

- methodDescription: Stability of (Z)-Endoxifen in acetone (HPLC peak table over time)
- Type: physicochemical
- runConditions: acetone at reflux (56° C.), T0
observationType: HPLC peak RT 27.21, RRT 1.80 (%)
Reply with just the number (in %).

Recorded HPLC peak RT 27.21, RRT 1.80 for CC/C(=C(\c1ccc(O)cc1)c1ccc(OCCNC)cc1)c1ccccc1 [(Z)-endoxifen] , please? 0.05

###

- methodDescription: Stability of (Z)-Endoxifen in acetone (HPLC peak table over time)
- Type: physicochemical
- runConditions: acetone, 40° C., T0
observationType: E-form, RT 15.40, RRT 0.95 (%)
Reply with just the number (in %).

Recorded E-form, RT 15.40, RRT 0.95 for CC/C(=C(\c1ccc(O)cc1)c1ccc(OCCNC)cc1)c1ccccc1 [(Z)-endoxifen] , please? 0.65

###

- methodDescription: Stability of (Z)-Endoxifen in acetone (HPLC peak table over time)
- Format: physicochemical
- runConditions: acetone, 40° C., 4 hr
observationType: HPLC peak RT 21.83, RRT 1.34 (%)
Reply with just the number (in %).

Recorded HPLC peak RT 21.83, RRT 1.34 for CC/C(=C(\c1ccc(O)cc1)c1ccc(OCCNC)cc1)c1ccccc1 [(Z)-endoxifen] , please? 0.1

###

- methodDescription: Stability of (Z)-Endoxifen in acetone (HPLC peak table over time)
- Format: physicochemical
- runConditions: acetone, 40° C., 20 hr
observationType: HPLC peak RT 3.14, RRT 0.19

Recorded HPLC peak RT 3.14, RRT 0.19 for CC/C(=C(\c1ccc(O)cc1)c1ccc(OCCNC)cc1)c1ccccc1 [(Z)-endoxifen] , please? 0.11%

###

- methodDescription: Stability of (Z)-Endoxifen in acetone (HPLC peak table over time)
- Type: physicochemical
- runConditions: acetone, 40° C., 4 hr
observationType: HPLC peak RT 14.68, RRT 0.90 (%)
Reply with just the number (in %).

Recorded HPLC peak RT 14.68, RRT 0.90 for CC/C(=C(\c1ccc(O)cc1)c1ccc(OCCNC)cc1)c1ccccc1 [(Z)-endoxifen] , please? 0.04

###

- methodDescription: Solubility testing of (Z)-endoxifen in single solvents
- Format: physicochemical
- runConditions: water, 100 °C, water, thermodynamic from solid, water, high temperature; read-out: Solubility
observationType: solubility

Recorded solubility for CC/C(=C(\c1ccc(O)cc1)c1ccc(OCCNC)cc1)c1ccccc1 [(Z)-endoxifen] , please? < 10000 µg/mL

###

- methodDescription: Stability of (Z)-Endoxifen in acetone (HPLC peak table over time)
- Assay type: physicochemical
- runConditions: acetone, 40° C., 24 hr
observationType: HPLC peak RT 21.83, RRT 1.34 (%)
Reply with just the number (in %).

Recorded HPLC peak RT 21.83, RRT 1.34 for CC/C(=C(\c1ccc(O)cc1)c1ccc(OCCNC)cc1)c1ccccc1 [(Z)-endoxifen] , please? 0.01

###

- methodDescription: Solubility testing of (Z)-endoxifen in single solvents
- Assay type: physicochemical
- runConditions: ethanol, organic solvent or mixture, thermodynamic from solid, ethanol, high temperature; read-out: Solubility
observationType: solubility

Recorded solubility for CC/C(=C(\c1ccc(O)cc1)c1ccc(OCCNC)cc1)c1ccccc1 [(Z)-endoxifen] , please? 20 to 100 mg/mL

All figures here come from patent US20250066286A1.
